The following compounds are shown together with reported IC50 values.
Test system: A2058 cells
METHOD_DESCRIPTION: Cell viability assay (Cell-Titer-Glo) in A2058 cells
Format: cell-based
SETUP_CONDITIONS: Homo sapiens, 48 hour treatment, test compounds 1 nM to 1 μM
OBSERVABLE: IC50 (nM)

{"COMPOUND": "CCC[C@@H]1NC(=O)[C@@H](NC(=O)[C@@H](O)C(C)C)Cc2ccc3c(c2)C2(C4=C(c5nc(C(=O)OC)co5)N=C1O4)c1ccccc1NC2O3 (some centres unmarked)", "RELATION_OPERATOR": "=", "REPORTED": 257}
{"COMPOUND": "CC(C)[C@H](O)C(=O)NC1Cc2ccc3c(c2)C2(C4=C(c5nc(C6OCCCO6)co5)N=C(O4)[C@H](C(C)C)NC1=O)c1ccccc1N[C@H]2O3 (some centres unmarked)", "RELATION_OPERATOR": "=", "REPORTED": 65}
{"COMPOUND": "CC(C)[C@H](O)C(=O)N[C@H]1Cc2ccc3c(c2)[C@]2(C4=C(c5nc(CO)co5)N=C(O4)[C@H](C(C)(C)C)NC1=O)c1cc(F)ccc1N[C@@H]2O3", "RELATION_OPERATOR": "=", "REPORTED": 0.47}
{"COMPOUND": "COC(=O)c1coc(-c2nc3oc2[C@@]24c5ccccc5NC2Oc2ccc(cc24)C[C@H](NC(=O)[C@@H](O)C(C)C)C(=O)N(C)[C@H]3C(C)C)n1 (some centres unmarked)", "RELATION_OPERATOR": "=", "REPORTED": 113}
{"COMPOUND": "CC(C)[C@H](O)C(=O)N[C@H]1Cc2ccc3c(c2)C2(C4=C(c5nc(CO)co5)N=C(O4)[C@H](C(C)C)NC1=O)c1ccccc1N(S(C)(=O)=O)[C@H]2O3 (some centres unmarked)", "RELATION_OPERATOR": ">", "REPORTED": 1000}

----------
Test system: A2058 cells
METHOD_DESCRIPTION: Cell viability assay (Cell-Titer-Glo) in A2058 cells
Assay type: cell-based
SETUP_CONDITIONS: Homo sapiens, 48 hour treatment, test compounds 1 nM to 1 μM

{"COMPOUND": "COC(=O)c1coc(-c2nc3oc2[C@]24c5ccccc5NC2Oc2ccc(cc24)C[C@H](NC(=O)[C@@H](O)C(C)C)C(=O)N(C)[C@H]3C(C)C)n1 (some centres unmarked)", "RELATION_OPERATOR": ">", "IC50 [nM]": 300}
{"COMPOUND": "COC(=O)c1csc(-c2nc3oc2C24c5ccccc5N[C@H]2Oc2ccc(cc24)C[C@H](NC(=O)[C@@H](O)C(C)C)C(=O)N[C@H]3C(C)C)n1 (some centres unmarked)", "RELATION_OPERATOR": "=", "IC50 [nM]": 225}
{"COMPOUND": "CC(C)[C@H](O)C(=O)N[C@H]1Cc2ccc3c(c2)C2(C4=C(c5nc(CNS(=O)(=O)c6ccccc6)co5)N=C(O4)[C@H](C(C)C)NC1=O)c1ccccc1N[C@H]2O3 (some centres unmarked)", "RELATION_OPERATOR": "=", "IC50 [nM]": 194}
{"COMPOUND": "CCC(O)(CC)C(=O)N[C@H]1Cc2ccc3c(c2)C2(C4=C(c5nc(C#N)co5)N=C(O4)[C@H](C(C)(C)C)NC1=O)c1ccccc1N[C@H]2O3 (some centres unmarked)", "RELATION_OPERATOR": "=", "IC50 [nM]": 16.8}
{"COMPOUND": "Cc1nnc(-c2coc(-c3nc4oc3[C@@]35c6ccccc6NC3Oc3ccc(cc35)C[C@H](NC(=O)[C@@H](O)C(C)C)C(=O)N[C@H]4C(C)(C)C)n2)o1 (some centres unmarked)", "RELATION_OPERATOR": "=", "IC50 [nM]": 6.11}
{"COMPOUND": "CC(C)[C@H](O)C(=O)N[C@H]1Cc2ccc3c(c2)C2(C4=C(c5nc(C#N)co5)N=C(O4)[C@H](C(C)C)NC1=O)c1ccccc1N[C@H]2O3 (some centres unmarked)", "RELATION_OPERATOR": "=", "IC50 [nM]": 23}
{"COMPOUND": "COC(=O)NCc1coc(-c2nc3oc2C24c5ccccc5N[C@H]2Oc2ccc(cc24)C[C@H](NC(=O)[C@@H](O)C(C)C)C(=O)N[C@H]3C(C)C)n1 (some centres unmarked)", "RELATION_OPERATOR": "=", "IC50 [nM]": 149}
{"COMPOUND": "COC(=O)c1coc(-c2nc3oc2C24c5ccccc5N[C@H]2Oc2ccc(cc24)C[C@H](NC(=O)[C@@H](O)C(C)C)C(=O)N[C@@H]3C(C)C)n1 (some centres unmarked)", "RELATION_OPERATOR": ">", "IC50 [nM]": 1000}
{"COMPOUND": "CC(C)C[C@H](O)C(=O)N[C@H]1Cc2ccc3c(c2)C2(C4=C(c5nc(CO)co5)N=C(O4)[C@H](C(C)C)NC1=O)c1ccccc1N[C@H]2O3 (some centres unmarked)", "RELATION_OPERATOR": "=", "IC50 [nM]": 143}
{"COMPOUND": "CC(C)[C@H](O)C(=O)N(C)[C@H]1Cc2ccc3c(c2)[C@]2(C4=C(c5nc(CO)co5)N=C(O4)[C@H](C(C)C)NC1=O)c1ccccc1NC2O3 (some centres unmarked)", "RELATION_OPERATOR": "=", "IC50 [nM]": 3}
{"COMPOUND": "COC(=O)c1coc(-c2nc3oc2C24c5ccccc5N[C@H]2Oc2ccc(cc24)CC[C@H](NC(=O)[C@@H](O)C(C)C)C(=O)N[C@H]3C(C)(C)C)n1 (some centres unmarked)", "RELATION_OPERATOR": "<", "IC50 [nM]": 0.1}

----------
Test system: A2058 cells
METHOD_DESCRIPTION: Cell viability assay (Cell-Titer-Glo) in A2058 cells
Assay type: cell-based
SETUP_CONDITIONS: Homo sapiens, 48 hour treatment, test compounds 1 nM to 1 μM
The following compounds are shown together with reported IC50 values.

{"COMPOUND": "COC(=O)c1coc(-c2nc3oc2[C@@]24c5ccccc5NC2Oc2ccc(cc24)C[C@H](NC(=O)[C@@H](O)C(C)C)C(=O)N[C@H]3C2CCCCC2)n1 (some centres unmarked) [Compound 58]", "RELATION_OPERATOR": ">", "IC50 / nM": 1000}
{"COMPOUND": "Cc1nc(-c2coc(-c3nc4oc3[C@@]35c6ccccc6NC3Oc3ccc(cc35)C[C@H](NC(=O)[C@@H](O)C(C)C)C(=O)N[C@H]4C(C)C)n2)no1 (some centres unmarked) [Compound 46]", "RELATION_OPERATOR": "=", "IC50 / nM": 49}
{"COMPOUND": "CC(C)[C@H](O)C(=O)NC1Cc2ccc3c(c2)C2(C4=C(c5nc(COC=O)co5)N=C(O4)[C@H](C(C)C)NC1=O)c1ccccc1N[C@H]2O3 (some centres unmarked) [Compound 23]", "RELATION_OPERATOR": "=", "IC50 / nM": 57}
{"COMPOUND": "CC(C)[C@H](O)C(=O)N[C@H]1Cc2ccc3c(c2)[C@]2(C4=C(c5nc(CO)co5)N=C(O4)[C@H](C(C)C)NC1=O)c1cc(F)ccc1N[C@@H]2O3 [Compound 81]", "RELATION_OPERATOR": "=", "IC50 / nM": 55.1}
{"COMPOUND": "COC(=O)OCc1coc(-c2nc3oc2C24c5ccccc5N[C@H]2Oc2ccc(cc24)CC(NC(=O)[C@@H](O)C(C)C)C(=O)N[C@H]3C(C)C)n1 (some centres unmarked) [Compound 24]", "RELATION_OPERATOR": "=", "IC50 / nM": 26}

----------
Tested on: A2058 cells
METHOD_DESCRIPTION: Cell viability assay (Cell-Titer-Glo) in A2058 cells
Format: cell-based
SETUP_CONDITIONS: Homo sapiens, 48 hour treatment, test compounds 1 nM to 1 μM
OBSERVABLE: IC50 (nM)

{"COMPOUND": "CC(C)[C@H](O)C(=O)N[C@H]1Cc2ccc3c(c2)[C@]2(C4=C(c5nc(CO)co5)N=C(O4)[C@H](C4CCCCC4)NC1=O)c1ccccc1NC2O3 (stereo partly drawn) [Compound 60]", "UNIT_ABBREVIATION": "nM", "RELATION_OPERATOR": ">", "REPORTED": 1000}
{"COMPOUND": "CC(C)[C@H](O)C(=O)N[C@H]1Cc2ccc(O)c(c2)[C@]2(CNc3ccccc32)C2=C(c3nc(CO)co3)N=C(O2)[C@H](C(C)C)NC1=O (single isomer, unassigned) [Compound 102]", "UNIT_ABBREVIATION": "nM", "RELATION_OPERATOR": "=", "REPORTED": 492}
{"COMPOUND": "COC(=O)c1coc(-c2nc3oc2[C@@]24c5ccccc5NC2Oc2ccc(cc24)C[C@H](N(C)C(=O)[C@@H](O)C(C)C)C(=O)N[C@H]3C(C)(C)C)n1 (stereo partly drawn) [Compound 90]", "UNIT_ABBREVIATION": "nM", "RELATION_OPERATOR": "=", "REPORTED": 10.4}
